Source: patent US20160200799A1

Quick reference for Binding activity (absorbance at 492 nm) among some binders
Biological target: Influenza virus A/Brisbane/59/2007 (H1N1) (Influenza A virus A/Brisbane/59/2007 (H1N1))
Assay: ELISA on coated viral particles; also: test concentration or dose not given here

Binder	Binding activity (absorbance at 492 nm)
Group 36 representative clone F082-243, Fab-cp3-type antibody (Fab, V domains shown) VH: QVQLQQSGAEVKKPGSSVKVSCKASGGIFRKNAISWVRQAPGQGLEWMGGIIAIFGTANYAQKFQGRVTITADDSTNTVYMELTSLRYEDTAVYYCARGPNYYENYFDFWGQGTLVTVSS VL: EIVLTQSPSSLSASLRDTVTITCRTSQAITNYLAWYQQRPGKAPKLLIYAASVLQSGVPSRFSGSGSGTDFTLTISSLQPEDFATYYCQKYDSAPYTFGQGTKLEIK	1.05
Group 54 representative clone F083-354, Fab-cp3-type antibody (Fab, V domains shown) VH: QVQLVQSGSEVKKPGSSVKVSCKASGGIFNSYGISWVRQAPGQGLEWMGGILAIFGTTNYAQKFQGRVTITADDSSKTVYMELSSLTSEDTAVYYCARGSTYYSSYFDQWGQGTLVTVSS VL: DIQMTQSPSSLSASVGDRVTITCRASQGIRNSLAWYQQKPGQVPKLLIYSATTLRSGVPYRFSGSGSGTDFTLTISGLQPEDVGTYFCHRYDSAPLTFGGGTRVALK	3.01
